# Tested on: Staphylococcus aureus
# assayProtocol: Antimicrobial activity against methicillin-resistant Staphylococcus aureus ATCC 12-1 incubated for 18 to 24 hrs
# Type: functional
measurementKind: MIC

>>> testresult("CO/N=C1\\CCN(c2c(F)cc3c(=O)c(C(=O)O)cn(C4CC4)c3c2OC)CC1NC(=O)CNC(=O)CN (stereo not drawn)")
"> 128 µg/mL"
>>> testresult("CO/N=C1\\CCN(c2c(F)cc3c(=O)c(C(=O)O)cn(C4CC4)c3c2OC)CC1NC(=O)[C@H](N)Cc1ccc(O)cc1 (stereo partly drawn)")
"> 128 µg/mL"

Would you kindly look at the next entry?
MIC reported for this compound CO/N=C1\CCN(c2c(F)cc3c(=O)c(C(=O)O)cn(C4CC4)c3c2OC)CC1NC(=O)C(C)NC(=O)C(C)N (stereo not drawn) : > 128 µg/mL

All figures here come from ChEMBL document CHEMBL4602605.
